tested on: LAPC-4 (prostate cancer) cells; test: Cell proliferation assay (MTS), LAPC-4; format: cell-based; conditions: Homo sapiens, LAPC4, 72 h, 3 days treatment, MTS; read-out: IC50 (μM) Prostate cancer LAPC-4
recorded-metric: IC50
Answer with the number, then the unit.

Illustrative cases are given below, each with its answer.
C#C[C@@]1(O)CC[C@H]2[C@@H]3CCc4cc(OS(N)(=O)=O)c(N5CCN(C(=O)[C@@H]6CCCN6C(=O)c6ccc7ccccc7n6)CC5)cc4[C@H]3CC[C@@]21C [Compound 4]; 0.3 µM
C#C[C@@]1(O)CC[C@H]2[C@@H]3CC[C@H]4CC(=O)C(N5CCN(C(=O)[C@@H]6CCCN6C(=O)c6ccc7ccccc7n6)CC5)=C[C@]4(C)[C@H]3CC[C@@]21C [1 (enone)]; 0.03 µM
C#C[C@@]1(O)CC[C@H]2[C@@H]3CCc4cc(OP(=O)(O)O)c(N5CCN(C(=O)[C@@H]6CCCN6C(=O)c6ccc7ccccc7n6)CC5)cc4[C@H]3CC[C@@]21C [Compound 5]; 0.3 µM

Batch request: IC50 per item, same order as input.
1. C#C[C@@]1(O)CC[C@H]2[C@@H]3CCc4cc(OC)c(C(=O)N5CCN(C(=O)[C@@H]6CCCN6C(=O)c6ccc7ccccc7n6)CC5)cc4[C@H]3CC[C@@]21C [Compound 25]
2. C#C[C@]1(O)CC[C@H]2[C@@H]3CCc4cc(OC)c(N5CCN(C(=O)[C@@H]6CCCN6C(=O)c6ccc7ccccc7n6)CC5)cc4[C@H]3CC[C@@]21C [RM-581]
3. C#C[C@@]1(O)CC[C@H]2[C@@H]3CCc4cc(OC(C)=O)c(N5CCN(C(=O)[C@@H]6CCCN6C(=O)c6ccc7ccccc7n6)CC5)cc4[C@H]3CC[C@@]21C [Compound 3]
4. C#C[C@]1(O)CC[C@H]2[C@@H]3CCc4cc(OC)c(CN5CCN(C(=O)[C@@H]6CCCN6C(=O)c6ccc7ccccc7n6)CC5)cc4[C@H]3CC[C@@]21C [Compound 29]

["0.5 µM", "0.6 µM", "0.5 µM", "0.7 µM"]

----------
Answer each item with its documented IC50.
tested on: MCF-7 breast cancer cells; assay: Cell proliferation assay (MTS), MCF-7; type: cell-based, human; settings: Homo sapiens, MCF7, 72 h, 3 days treatment
Answers are plain numbers, in µM.

C#C[C@@]1(O)CC[C@H]2[C@@H]3CCc4cc(OC)c(C(=O)N5CCN(C(=O)[C@@H]6CCCN6C(=O)c6ccc7ccccc7n6)CC5)cc4[C@H]3CC[C@@]21C; 2.2
C#C[C@@]1(O)CC[C@H]2[C@@H]3CCc4cc(OP(=O)(O)O)c(N5CCN(C(=O)[C@@H]6CCCN6C(=O)c6ccc7ccccc7n6)CC5)cc4[C@H]3CC[C@@]21C; 1.5

Batch request: IC50 per item, same order as input.
1. C#C[C@@]1(O)CC[C@H]2[C@@H]3CCc4cc(OC(C)=O)c(N5CCN(C(=O)[C@@H]6CCCN6C(=O)c6ccc7ccccc7n6)CC5)cc4[C@H]3CC[C@@]21C
2. C#C[C@]1(O)CC[C@H]2[C@@H]3CCc4cc(OC)c(CN5CCN(C(=O)[C@@H]6CCCN6C(=O)c6ccc7ccccc7n6)CC5)cc4[C@H]3CC[C@@]21C
3. C#C[C@@]1(O)CC[C@H]2[C@@H]3CCc4cc(OS(N)(=O)=O)c(N5CCN(C(=O)[C@@H]6CCCN6C(=O)c6ccc7ccccc7n6)CC5)cc4[C@H]3CC[C@@]21C

1. 1.4
2. 2.3
3. 1.2

----------
tested on: OVCAR-3 cells (ovarian cancer); experiment: Cell proliferation assay (MTS), OVCAR-3; assay type: cell-based; details: Homo sapiens, OVCAR-3, 72 h, read-out: IC50 (μM) Ovarian cancer OVCAR-3
recorded-metric: IC50 (µM)
Give bare numbers, in µM.

Check the records and state IC50 for `C#C[C@@]1(O)CC[C@H]2[C@@H]3CCc4cc(OC(=O)N(C)C)c(N5CCN(C(=O)[C@@H]6CCCN6C(=O)c6ccc7ccccc7n6)CC5)cc4[C@H]3CC[C@@]21C`
6.4

----------
tested on: renal proximal tubule epithelial cells (RPTEC); assay: Toxicity on normal cells (MTS), RPTEC; type: cell-based, human; settings: Homo sapiens, RPTEC, relative toxicity on human normal cells; read-out: IC50 (μM) Normal Cells Kidney
recorded-metric: IC50

Check the records and state IC50 for C#C[C@@]1(O)CC[C@H]2[C@@H]3CCc4cc(OC(C)=O)c(N5CCN(C(=O)[C@@H]6CCCN6C(=O)c6ccc7ccccc7n6)CC5)cc4[C@H]3CC[C@@]21C [Compound 3]
≥ 50 µM

----------
test: in vivo; details: female, Balb/c, mouse, po, 60 mg/kg
recorded-metric: concentration at 3 h (ng/mL)
One number for each entry, in ng/mL.

Check the records and state concentration at 3 h for C#C[C@]1(O)CC[C@H]2[C@@H]3CCc4cc(OC)c(N5CCN(C(=O)[C@@H]6CCCN6C(=O)c6ccc7ccccc7n6)CC5)cc4[C@H]3CC[C@@]21C [RM-581]
550

----------
Answer each item with its documented IC50.
tested on: primary pancreas normal cells; assay: Toxicity on normal cells (MTS), primary pancreas; type: cell-based, human; details: human normal cells
Numbers only, in µM.

Illustrative cases are given below, each with its answer.
C#C[C@@]1(O)CC[C@H]2[C@@H]3CC[C@H]4CC(=O)[C@@H](N5CCN(C(=O)[C@@H]6CCCN6C(=O)c6ccc7ccccc7n6)CC5)C[C@]4(C)[C@H]3CC[C@@]21C; 5.41
C#C[C@@]1(O)CC[C@H]2[C@@H]3CC[C@H]4C[C@H](OC(C)=O)[C@H](N5CCN(C(=O)[C@@H]6CCCN6C(=O)c6ccc7ccccc7n6)CC5)C[C@]4(C)[C@H]3CC[C@@]21C; 30.1
C#C[C@]1(OC(C)=O)CC[C@H]2[C@@H]3CC[C@H]4C[C@H](OC(C)=O)[C@@H](N5CCN(C(=O)[C@@H]6CCCN6C(=O)c6ccc7ccccc7n6)CC5)C[C@]4(C)[C@H]3CC[C@@]21C; 16.6

# input for lookup
Give reported IC50 for C#C[C@@]1(O)CC[C@H]2[C@@H]3CC[C@H]4CC(=O)C(N5CCN(C(=O)[C@@H]6CCCN6C(=O)c6ccc7ccccc7n6)CC5)=C[C@]4(C)[C@H]3CC[C@@]21C [1 (enone)] (primary pancreas normal cells)
2.2

----------
Test system: LAPC-4 (prostate cancer) cells
Assay: Cell proliferation assay (MTS), LAPC-4
Type: cell-based
Settings: Homo sapiens, LAPC4, 72 h, read-out: IC50 (μM) Prostate cancer LAPC-4
Method: The different aminosteroids were dissolved in methanol (50 mM).
recorded-metric: IC50

Check the records and state IC50 for `C#C[C@@]1(O)CC[C@H]2[C@@H]3CCc4cc(OC(=O)N(C)C)c(N5CCN(C(=O)[C@@H]6CCCN6C(=O)c6ccc7ccccc7n6)CC5)cc4[C@H]3CC[C@@]21C`
1.3 µM

----------
Answer each item with its documented IC50.
test system: renal proximal tubule epithelial cells (RPTEC); assay: Toxicity on normal cells (MTS), RPTEC; assay type: cell-based, human; settings: Homo sapiens, RPTEC, normal (kidney) cells; read-out: IC50 (μM) RPTEC (normal cells)
Give bare numbers, in µM.

C#C[C@@]1(O)CC[C@H]2[C@@H]3CC[C@H]4CC(=O)[C@@H](N5CCN(C(=O)[C@@H]6CCCN6C(=O)c6ccc7ccccc7n6)CC5)C[C@]4(C)[C@H]3CC[C@@]21C; 20.7

Give reported IC50 for C#C[C@@]1(O)CC[C@H]2[C@@H]3CC[C@H]4C[C@H](OC(=O)N(C)C)[C@@H](N5CCN(C(=O)[C@@H]6CCCN6C(=O)c6ccc7ccccc7n6)CC5)C[C@]4(C)[C@H]3CC[C@@]21C [3 (3-carbamate)] (renal proximal tubule epithelial cells (RPTEC))
24.2

----------
system: OVCAR-3 cells (ovarian cancer); assay: Cell proliferation assay (MTS), OVCAR-3; assay type: cell-based; conditions: fold of RM-133 activity (>1 = more active)
recorded-metric: antiproliferative activity relative to RM-133, OVCAR-3

C#C[C@@]1(O)CC[C@H]2[C@@H]3CC[C@H]4C[C@@H](N5CCN(C(=O)[C@@H]6CCCN6C(=O)c6ccc7ccccc7n6)CC5)CC[C@]4(C)[C@H]3CC[C@@]21C [15 (side-chain at 3β)]; completely inactive
C#C[C@@]1(O)CC[C@H]2[C@@H]3CC[C@H]4CC(=O)C(N5CCN(C(=O)[C@@H]6CCCN6C(=O)c6ccc7ccccc7n6)CC5)=C[C@]4(C)[C@H]3CC[C@@]21C [1 (enone)]; 22.9 fold
C#C[C@]1(OC(C)=O)CC[C@H]2[C@@H]3CC[C@H]4C[C@H](OC(C)=O)[C@@H](N5CCN(C(=O)[C@@H]6CCCN6C(=O)c6ccc7ccccc7n6)CC5)C[C@]4(C)[C@H]3CC[C@@]21C; 0.4 fold
C#C[C@@]1(O)CC[C@H]2[C@@H]3CC[C@H]4CC(=O)[C@@H](N5CCN(C(=O)[C@@H]6CCCN6C(=O)c6ccc7ccccc7n6)CC5)C[C@]4(C)[C@H]3CC[C@@]21C; 2 fold
CN1CCN(C(=O)[C@@H]2CCCN2C(=O)c2ccc3ccccc3n2)CC1 [10 (side-chain only)]; completely inactive

Batch request: antiproliferative activity relative to RM-133, OVCAR-3 per item, same order as input.
1. C#C[C@@]1(O)CC[C@H]2[C@@H]3CC[C@H]4C[C@H](OC(=O)N(C)C)[C@@H](N5CCN(C(=O)[C@@H]6CCCN6C(=O)c6ccc7ccccc7n6)CC5)C[C@]4(C)[C@H]3CC[C@@]21C [3 (3-carbamate)]
2. C#C[C@@]1(O)CC[C@H]2[C@@H]3CC[C@H]4C[C@H](OC(C)=O)[C@H](N5CCN(C(=O)[C@@H]6CCCN6C(=O)c6ccc7ccccc7n6)CC5)C[C@]4(C)[C@H]3CC[C@@]21C

["0.3 fold", "1.4 fold"]
